Where these numbers come from: the supplement of paper PMC4862054

# Tested on: MDA-MB-436
# experiment: normalised viability (% of control), CellTiter-Blue; higher = more viable cells (about 100 = DMSO control)
# assay-setup: 1000 nM; incubation time: 72 h
Below, each entry is listed with its recorded normalised viability.

structure-as-smiles	target-or-test-system	normalised viability (%)
C[C@@H]1C[C@H]2[C@@H]3CCC4=CC(=O)C=C[C@]4(C)[C@@]3(F)[C@@H](O)C[C@]2(C)[C@@]1(O)C(=O)CO	MDA-MB-436	89.6
Cc1cc2c(F)c(Oc3ncnn4cc(OC[C@@H](C)O)c(C)c34)ccc2[nH]1	MDA-MB-436	96.4
C[C@@H](C(=O)O)c1ccc(-c2ccccc2)c(F)c1	MDA-MB-436	90.4
C[C@@H](CN1CC(=O)NC(=O)C1)N1CC(=O)NC(=O)C1	MDA-MB-436	95.8
O=C(c1cc(Cc2n[nH]c(=O)c3ccccc23)ccc1F)N1CCN(C(=O)C2CC2)CC1	MDA-MB-436	105
